FYI, the data here is from ChEMBL document CHEMBL5126607.

Here's a batch of compounds along with measured pIC50 for C-X-C chemokine receptor type 3 (Homo sapiens, UniProt P49682).
Note on pIC50: it is the negative log10 of concentration, concentration in mol/L.

IN: Field request: pIC50 | item: COc1ncc(-c2nc(C(F)(F)F)sc2N2CCN(C(=O)Cn3cnc4cccnc43)[C@H](C)C2)cn1
OUT: 6.75

IN: Okay, and Cc1nc(C)n(CC(=O)N2CCN(c3sc(C(F)(F)F)nc3-c3cnc(OC4CCC4)nc3)C[C@H]2C)n1 ?
OUT: 7.11

IN: Okay, and C[C@@H]1CN(c2sc(C3COC3)nc2-c2nc3ccccc3[nH]2)CCN1C(=O)Cn1cnc2cccnc21 ?
OUT: 5.21

IN: Okay, and Cc1nc(C)n(CC(=O)N2CCN(c3sc(C(F)(F)F)nc3-c3cnc(OC(C)C)nc3)C[C@H]2C)n1 ?
OUT: 6.86

IN: Okay, and Cc1nc(C)n(CC(=O)N2CCN(c3sc(C(F)(F)F)nc3-c3cnc(C4CC4)nc3)C[C@H]2C)n1 ?
OUT: 6.46

IN: Okay, and CCOc1ncc(-c2nc(C(F)(F)F)sc2N2CCN(C(=O)Cn3ccc(C(F)(F)F)n3)[C@H](C)C2)cn1 ?
OUT: 7.03

IN: Okay, and C[C@@H]1CN(c2sc(C(F)(F)F)nc2-c2cnc(OCCN(C)C)nc2)CCN1C(=O)Cn1cnc2cccnc21 ?
OUT: 6.85

###

Test Summary: in vivo
Conditions: beagle, dog, po, 2 mg/kg
Give measured Cmax for each item. Keep answers brief.
The response must be a number in ng/mL with no trailing unit.

IN: Field request: Cmax | item: CCOc1ncc(-c2nc(C(F)(F)F)sc2N2CCN(C(=O)Cn3nc(C)nc3C)[C@H](C)C2)cn1
OUT: 415

IN: Okay, and Cc1nc(C)n(CC(=O)N2CCN(c3sc(C(F)(F)F)nc3-c3cnc(C(F)(F)F)nc3)C[C@H]2C)n1 ?
OUT: 1380

###

Test Summary: Fractional unbound plasma concentration in mouse at 1 mg/kg, iv and 10 mg/kg, po
Quantity Measured: fraction unbound
The reply should be a number, written without any unit.

IN: Field request: fraction unbound | item: C[C@@H]1CN(c2sc(C(F)(F)F)nc2-c2nc3ccccc3[nH]2)CCN1C(=O)Cn1cnc2cccnc21
OUT: 0.01

IN: Okay, and C[C@@H]1CN(c2scnc2-c2nc3ccccc3[nH]2)CCN1C(=O)Cn1cnc2cccnc21 ?
OUT: 0.122

###

Test Summary: Lipophilicity, log D of the compound at pH 7.4
Conditions: buffer
Quantity Measured: logD

IN: Field request: logD | item: CCOc1ncc(-c2nc(C(F)(F)F)sc2N2CCN(C(=O)Cn3nc(C)cc3C)[C@H](C)C2)cn1
OUT: 3.7

IN: Okay, and Cc1nc(C)n(CC(=O)N2CCN(c3sc(C(F)(F)F)nc3-c3cnc(C(F)(F)F)nc3)C[C@H]2C)n1 ?
OUT: 2.9

IN: Okay, and CCOc1ncc(-c2nc(C(F)(F)F)sc2N2CCN(C(=O)Cn3nc(C)nc3C)[C@H](C)C2)cn1 ?
OUT: 2.8

IN: Okay, and Cc1nc(C)n(CC(=O)N2CCN(c3sc(C(F)(F)F)nc3-c3cnc(OC4CCC4)nc3)C[C@H]2C)n1 ?
OUT: 3.6
